Recorded Dose/organ by entry
System: Mus musculus
ASSAY NOTES: Tested for biodistribution of radioactivity after 24 hr of intravenous injection in mice urine
Format: ADME, organism-based
RUN PARAMETERS: in vivo
Supply the numeric figure in %, leaving out any unit text.

INSERT INTO assay_data (compound, units, recorded_value) VALUES
  ('CN[C@@H](CSC1CC(=O)N(CCOC(=O)CNC(=O)c2cccc(I)c2)C1=O)C(=O)O (stereo not given in full)', '%', 90.6),
  ('NCCCCC(N)C(=O)NC(=O)c1cccc(I)c1 (stereo not given)', '%', 10.09),
  ('CCc1ccc(O)c(I)c1', '%', 79.66),
  ('N[C@@H](CSC1CC(=O)N(CCOC(=O)CNC(=O)c2cccc(I)c2)C1=O)C(=O)O (stereo not given in full)', '%', 23.39);

Turning now to a further compound:
Data point: "CN[C@@H](CCCCN)C(=O)NC(=O)c1cccc(I)c1" ; Dose/organ = 83.9
